Subject of test: Sentrin-specific protease 7 (Homo sapiens)
Sequence (Q9BQF6 whole entry): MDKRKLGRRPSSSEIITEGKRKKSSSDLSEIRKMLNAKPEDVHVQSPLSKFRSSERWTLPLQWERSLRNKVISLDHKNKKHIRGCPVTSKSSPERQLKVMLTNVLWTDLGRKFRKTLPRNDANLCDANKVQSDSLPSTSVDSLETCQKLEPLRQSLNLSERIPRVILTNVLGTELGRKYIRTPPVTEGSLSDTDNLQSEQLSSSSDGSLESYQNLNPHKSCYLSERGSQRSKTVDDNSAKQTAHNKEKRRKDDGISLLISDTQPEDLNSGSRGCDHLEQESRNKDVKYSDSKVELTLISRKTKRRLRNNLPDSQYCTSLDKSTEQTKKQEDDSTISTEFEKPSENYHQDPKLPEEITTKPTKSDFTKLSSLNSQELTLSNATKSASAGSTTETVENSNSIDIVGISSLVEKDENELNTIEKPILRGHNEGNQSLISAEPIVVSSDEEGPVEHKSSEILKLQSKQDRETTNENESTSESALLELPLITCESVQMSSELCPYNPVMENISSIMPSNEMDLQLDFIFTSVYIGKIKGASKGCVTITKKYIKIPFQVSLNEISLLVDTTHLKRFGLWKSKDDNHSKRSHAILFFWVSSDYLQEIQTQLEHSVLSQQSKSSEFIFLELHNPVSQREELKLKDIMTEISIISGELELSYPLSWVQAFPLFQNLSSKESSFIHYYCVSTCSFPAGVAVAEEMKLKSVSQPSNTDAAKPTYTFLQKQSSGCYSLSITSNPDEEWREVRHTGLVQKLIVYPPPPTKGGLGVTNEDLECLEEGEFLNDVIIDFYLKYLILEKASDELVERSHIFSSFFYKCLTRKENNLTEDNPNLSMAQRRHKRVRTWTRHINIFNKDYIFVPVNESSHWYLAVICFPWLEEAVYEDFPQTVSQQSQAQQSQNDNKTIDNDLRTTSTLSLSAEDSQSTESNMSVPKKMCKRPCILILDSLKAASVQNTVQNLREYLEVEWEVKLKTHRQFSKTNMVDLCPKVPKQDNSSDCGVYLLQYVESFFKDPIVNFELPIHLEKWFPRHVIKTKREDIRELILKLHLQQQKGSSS
Type: functional
Activity calls are given as the source filed them.
Field 'call' accepts active, inactive

> print(dat)
                    structure.as.smiles  classification
1  CC(C)(C)c1ccc2c(c1)C(=O)c1ccccc1C2=O        inactive
2  O=C1c2ccccc2-c2nnc(-c3ccc(F)cc3)cc21          active

As a next step, examine the compound that follows.
### Prompt What did this assay record as the result for NS(=O)(=O)c1ccc(NC(=O)COC(=O)c2ccc([N+](=O)[O-])s2)cc1 ?
### Response active

---

Subject of test: Cytochrome P450 2C19 (Homo sapiens, UniProt P33261)
Sequence (P33261 whole entry): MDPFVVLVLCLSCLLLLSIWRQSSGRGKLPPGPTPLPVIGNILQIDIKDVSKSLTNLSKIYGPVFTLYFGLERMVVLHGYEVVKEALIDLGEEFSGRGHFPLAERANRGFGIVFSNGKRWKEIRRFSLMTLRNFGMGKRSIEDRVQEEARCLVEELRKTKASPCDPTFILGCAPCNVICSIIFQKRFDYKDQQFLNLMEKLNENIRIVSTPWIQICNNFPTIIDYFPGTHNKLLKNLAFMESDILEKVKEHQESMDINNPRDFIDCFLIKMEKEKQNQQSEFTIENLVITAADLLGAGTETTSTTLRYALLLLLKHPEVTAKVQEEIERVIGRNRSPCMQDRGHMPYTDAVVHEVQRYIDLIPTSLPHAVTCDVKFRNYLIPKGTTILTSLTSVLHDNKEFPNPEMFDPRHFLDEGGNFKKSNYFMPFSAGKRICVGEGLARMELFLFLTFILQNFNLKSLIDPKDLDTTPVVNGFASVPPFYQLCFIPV
Assay overview: Cytochrome panel assay with activity outcomes. Panel member name: p450-cyp2c19 Compounds with AC50 equal or less than 10 uM are considered active
Type: functional
Test settings: read-out: AC50
Quantity name: AC50

Example cases with answers are listed next.
> print(dat)
                                   compound  quantity.name          reported.value
1  Cc1cccn2c(=O)c3cc(C(=O)N4COCC4(C)C)n(C)c3nc12           AC50  4.47 µM (inconclusive)
2             COc1ccccc1-c1cncnc1NCCNC(C)=O           AC50  39.8 µM (inconclusive)
3      c1cncc(CNc2nc(-c3ccoc3)nc3ccccc23)c1           AC50    20 µM (inconclusive)
4  CCc1cc(C(=O)NN=C(S)NCC2CCCO2)cs1 (centres undefined)           AC50  7.94 µM (inconclusive)
5           CCOc1ccc(-c2nnc3ccc(SC)nn23)cc1           AC50  7.94 µM (inconclusive)
6  CC(=O)OC1N=C(c2ccccc2)c2cc(Br)ccc2N(C)C1=O (centres undefined)           AC50  39.8 µM (inconclusive)

Return reported AC50 values for all items listed beneath this line.
1. O=C(c1csnn1)N1CCC[C@@]2(CCN(Cc3nccs3)C2)C1
2. c1ccc(CCNc2nnnn2-c2ccccc2)cc1
3. Cc1ccc(-c2nc3c(=O)n(C)c4ccccc4c3o2)cc1

### Response
1: 25.1 µM (inconclusive); 2: 1.78 µM (inconclusive); 3: 8.91 µM (inconclusive)

Return reported AC50 values for all items listed beneath this line.
1. CCOC(=O)N1CCC(NC(=O)CCC(=O)N2CCOc3ccccc32)CC1
2. COC(=O)C/C=C\[C@@H](C)[C@@H](/C=N\OC[C@@H](C)[C@H](OCc1ccccc1)C(C)C)OC

### Response
14.1 µM (inconclusive)
2 µM (inconclusive)
